# Tested on: NCI-H23 lung
# assay_remarks: NCI tumour cell line growth inhibition, 48 h
reported_property: TGI

N/C(=N\c1nc2ccc([N+](=O)[O-])cc2s1)NC(=O)Nc1ccccc1Cl
> 100 µM
COc1c(B(O)O)cc(F)cc1-c1nc2c(F)cc3[nH]ncc3c2c2c1CCCC2
31.3 µM
COC(=O)CNC(=O)COc1c(OC)c(OC)cc2oc(-c3cccc(C(=O)Nc4ccc(Cl)cc4)c3)cc(=O)c12
20 µM
CCNCCCn1c2c(c3cc(OC)c(OC)cc3c1=O)C(=O)c1cc3c(nc1-2)OCO3
3.76 µM

Q: # get_value(readout='TGI', item= CSc1ccc(C(=O)Nc2ccc3nn(/C(C#N)=C/c4ccccn4)nc3c2)cc1 )
Ans: 1.54 µM

###

# Tested on: MOLT-4 leukemia
# assay_remarks: NCI tumour cell line growth inhibition, 48 h; in the data active = GI50 below about 0.43 µM; inactive = the rest
API: response.call in label 1 for active, label 0 for inactive

Use these answered entries as a reference point.
CCNCCCn1c2c(c3cc(OC)c(OC)cc3c1=O)C(=O)c1cc3c(nc1-2)OCO3
label 1
COC(=O)CNC(=O)COc1c(OC)c(OC)cc2oc(-c3cccc(C(=O)Nc4ccc(Cl)cc4)c3)cc(=O)c12
label 0
N/C(=N\c1nc2ccc([N+](=O)[O-])cc2s1)NC(=O)Nc1ccccc1Cl
label 0
Nc1nn2c(-c3cc4cc(Br)ccc4oc3=O)ccnc2c1N=Nc1ccc(Br)cc1
label 0

// switching to the query compound
Q: Hi, sorry to bother you, what did the test record for COc1cc2c3c(n(CCCNC(C)C)c(=O)c2cc1OC)-c1nc2c(cc1C3=O)OCO2 ?
Ans: label 1

###

# Tested on: A549 NSCLC
# assay_remarks: NCI tumour cell line growth inhibition, 48 h
reported_property: GI50

Observe how each entry below is paired with its result.
Nc1nn2c(-c3cc4cc(Br)ccc4oc3=O)ccnc2c1N=Nc1ccc(Br)cc1
2.42 µM
CC1=C(c2cc(-c3ccc(Cl)cc3)c(C#N)c(N)n2)C(c2ccccc2)NC(=S)N1 (centres undefined)
48.8 µM
COC(=O)CNC(=O)COc1c(OC)c(OC)cc2oc(-c3cccc(C(=O)Nc4ccc(Cl)cc4)c3)cc(=O)c12
7.25 µM

Next compound, GI50 to be filled in.
Q: # get_value(readout='GI50', item= CSc1ccc(C(=O)Nc2ccc3nn(/C(C#N)=C/c4ccccn4)nc3c2)cc1 )
Ans: 2.2 µM

###

# Test system: HOP-62 NSCLC
# assay_remarks: NCI tumour cell line growth inhibition, 48 h; in the data active = GI50 below about 0.43 µM; inactive = the rest
API: response.call in T = active, F = inactive

Use these answered entries as a reference point.
CCNCCCn1c2c(c3cc(OC)c(OC)cc3c1=O)C(=O)c1cc3c(nc1-2)OCO3
T
COc1cc2c3c(n(CCCNC(C)C)c(=O)c2cc1OC)-c1nc2c(cc1C3=O)OCO2
F
CSc1ccc(C(=O)Nc2ccc3nn(/C(C#N)=C/c4ccccn4)nc3c2)cc1
F
O=C(c1ccc(Cl)cc1)C1[C@H](c2ccc(Br)cc2)[C@@H](c2ccccc2)NC12C(=O)Nc1ccc(Br)cc12 (stereo not given in full)
F

// switching to the query compound
Q: Hi, sorry to bother you, what did the test record for COC(=O)CNC(=O)COc1c(OC)c(OC)cc2oc(-c3cccc(C(=O)Nc4ccc(Cl)cc4)c3)cc(=O)c12 ?
Ans: F

###

# Tested on: NCI-H226 lung
# assay_remarks: NCI tumour cell line growth inhibition, 48 h
reported_property: GI50

COC(=O)CNC(=O)COc1c(OC)c(OC)cc2oc(-c3cccc(C(=O)Nc4ccc(Cl)cc4)c3)cc(=O)c12
4010 nM
CSc1ccc(C(=O)Nc2ccc3nn(/C(C#N)=C/c4ccccn4)nc3c2)cc1
1640 nM
CCNCCCn1c2c(c3cc(OC)c(OC)cc3c1=O)C(=O)c1cc3c(nc1-2)OCO3
1270 nM

Next molecule, GI50 to be filled in.
Q: # get_value(readout='GI50', item= COc1c(B(O)O)cc(F)cc1-c1nc2c(F)cc3[nH]ncc3c2c2c1CCCC2 )
Ans: 3300 nM

###

# Test system: SK-MEL-28 melanoma
# assay_remarks: NCI tumour cell line growth inhibition, 48 h
Here the recorded TGI is given for each entry.
Reply with just the number (in µM).

Observe how each entry below is paired with its result.
CSc1ccc(C(=O)Nc2ccc3nn(/C(C#N)=C/c4ccccn4)nc3c2)cc1
1.82
COC(=O)CNC(=O)COc1c(OC)c(OC)cc2oc(-c3cccc(C(=O)Nc4ccc(Cl)cc4)c3)cc(=O)c12
18.9

Q: Recorded TGI for CCNCCCn1c2c(c3cc(OC)c(OC)cc3c1=O)C(=O)c1cc3c(nc1-2)OCO3 with SK-MEL-28 melanoma, please?
Ans: 8.53

###

# Tested on: MDA-MB-435
Here the recorded GI50 is given for each entry.

Observe how each entry below is paired with its result.
CCNCCCn1c2c(c3cc(OC)c(OC)cc3c1=O)C(=O)c1cc3c(nc1-2)OCO3
1.38 µM
COc1cc2c3c(n(CCCNC(C)C)c(=O)c2cc1OC)-c1nc2c(cc1C3=O)OCO2
2.16 µM
COC(=O)CNC(=O)COc1c(OC)c(OC)cc2oc(-c3cccc(C(=O)Nc4ccc(Cl)cc4)c3)cc(=O)c12
6.57 µM

Q: # get_value(readout='GI50', item= N/C(=N\c1nc2ccc([N+](=O)[O-])cc2s1)NC(=O)Nc1ccccc1Cl )
Ans: 2.26 µM

Q: # get_value(readout='GI50', item= COc1c(B(O)O)cc(F)cc1-c1nc2c(F)cc3[nH]ncc3c2c2c1CCCC2 )
Ans: 13.8 µM

Q: # get_value(readout='GI50', item= CC1=C(c2cc(-c3ccc(Cl)cc3)c(C#N)c(N)n2)C(c2ccccc2)NC(=S)N1 (stereo unspecified) )
Ans: 7.44 µM

###

# Tested on: RXF 393 renal
# assay_remarks: NCI tumour cell line growth inhibition, 48 h
Here the recorded GI50 is given for each entry.

O=C(c1ccc(Cl)cc1)C1[C@H](c2ccc(Br)cc2)[C@@H](c2ccccc2)NC12C(=O)Nc1ccc(Br)cc12 (some centres undefined)
1180 nM
CSc1ccc(C(=O)Nc2ccc3nn(/C(C#N)=C/c4ccccn4)nc3c2)cc1
699 nM
N/C(=N\c1nc2ccc([N+](=O)[O-])cc2s1)NC(=O)Nc1ccccc1Cl
3790 nM

Q: # get_value(readout='GI50', item= CCNCCCn1c2c(c3cc(OC)c(OC)cc3c1=O)C(=O)c1cc3c(nc1-2)OCO3 )
Ans: 1350 nM

###

# Test system: HS 578T breast
# assay_remarks: NCI tumour cell line growth inhibition, 48 h
reported_property: GI50

CCNCCCn1c2c(c3cc(OC)c(OC)cc3c1=O)C(=O)c1cc3c(nc1-2)OCO3
10.4 µM

Q: # get_value(readout='GI50', item= COC(=O)CNC(=O)COc1c(OC)c(OC)cc2oc(-c3cccc(C(=O)Nc4ccc(Cl)cc4)c3)cc(=O)c12 )
Ans: 4.28 µM

Q: # get_value(readout='GI50', item= COc1cc2c3c(n(CCCNC(C)C)c(=O)c2cc1OC)-c1nc2c(cc1C3=O)OCO2 )
Ans: 11.8 µM

Q: # get_value(readout='GI50', item= O=C(c1ccc(Cl)cc1)C1[C@H](c2ccc(Br)cc2)[C@@H](c2ccccc2)NC12C(=O)Nc1ccc(Br)cc12 (some centres undefined) )
Ans: 4.15 µM

###

Here the recorded TGI is given for each entry.
# Tested on: SNB-19 CNS
# assay_remarks: NCI tumour cell line growth inhibition, 48 h
Reply with just the number (in µM).

COC(=O)CNC(=O)COc1c(OC)c(OC)cc2oc(-c3cccc(C(=O)Nc4ccc(Cl)cc4)c3)cc(=O)c12
22.4
COc1c(B(O)O)cc(F)cc1-c1nc2c(F)cc3[nH]ncc3c2c2c1CCCC2
66.4
CSc1ccc(C(=O)Nc2ccc3nn(/C(C#N)=C/c4ccccn4)nc3c2)cc1
8.79

Q: # get_value(readout='TGI', item= CCNCCCn1c2c(c3cc(OC)c(OC)cc3c1=O)C(=O)c1cc3c(nc1-2)OCO3 )
Ans: 17.5

###

# System: MDA-MB-435
# assay_remarks: NCI tumour cell line growth inhibition, 48 h
reported_property: TGI (µM)
Reply with just the number (in µM).

Q: # get_value(readout='TGI', item= COC(=O)CNC(=O)COc1c(OC)c(OC)cc2oc(-c3cccc(C(=O)Nc4ccc(Cl)cc4)c3)cc(=O)c12 )
Ans: 21.9

Q: # get_value(readout='TGI', item= N/C(=N\c1nc2ccc([N+](=O)[O-])cc2s1)NC(=O)Nc1ccccc1Cl )
Ans: 7.77

###

# Tested on: ACHN renal
# assay_remarks: NCI tumour cell line growth inhibition, 48 h
Kind request: treat 5 µM as inclusive, so TGI at 5 µM or higher is true (1), anything lower is false (0).

Use these answered entries as a reference point.
CN1CCN(C(=O)Oc2cc3c(c4ccccc24)[C@H](CCl)CN3C(=O)c2cc3cc(OCCCN4CCC4)ccc3[nH]2)[C@H]2CSSC[C@H]21
false (0)
CCNCCCn1c2c(c3cc(OC)c(OC)cc3c1=O)C(=O)c1cc3c(nc1-2)OCO3
true (1)
CSc1ccc(C(=O)Nc2ccc3nn(/C(C#N)=C/c4ccccn4)nc3c2)cc1
false (0)

Q: Has COc1c(B(O)O)cc(F)cc1-c1nc2c(F)cc3[nH]ncc3c2c2c1CCCC2 a recorded TGI greater than or equal to 5 µM?
Ans: true (1)

Q: Has COc1cc2c3c(n(CCCNC(C)C)c(=O)c2cc1OC)-c1nc2c(cc1C3=O)OCO2 a recorded TGI greater than or equal to 5 µM?
Ans: true (1)
